Biological target: eOD-GT8 (monomeric ligand) (Human immunodeficiency virus 1, …)
property-name: Kd (nM)
Report as a plain number; the unit nM is understood.

g5-D78-19_CLK09 (antibody, V domains shown) VH: QVQLVQSGAEVKKPGVSVKVSCKASGYTFNGYYMHWVRQAPGQGLEWMGWINPNNGGMNVARRFQDRVTLTRDTSFTTAYMELSRLRSDDSAVYYCARVGGLWFGEKWTFDIWGQGTMVTVSS VL: DIQMTQSPSSLSASVGDRVTITCQTSQDISTFLNWYQQRPGKAPKLLIYGASNLATGVPSRFSGSGSGTDFTFTISSLQPEDIATYYCQQYEFFGGGTKVEIK; 0.2

If you can, please state the reported Kd value of g28v2-D58-11_CLK09 (antibody, V domains shown) VH: QVQLVQSGAEVKKPGASVKVSCKASGYTFTDYHIHWVRQAPGQGLEWMGWINPRGGGTNYAQKFQGRVTMTRDTSISTAYMDLSRLRSDDTAVYYCTPVLATFRWRFDYWGQGTLVTVSS VL: DIQMTQSPSSLSASVGDRVTITCQASQDIRNYLNWYQQKPGKAPKLLIYDASNFETGVPSRFSGSGSGTDFTFTISSLQPEDIATYYCQQYEFFGGGTKVEIK . 3.65

Data origin: paper PMC11488661
